assay: Pharmacokinetic test of plasma and tumor of tumor-bearing nude mice
Type: in vivo
protocol_conditions: tumor-bearing nude mice, p.o. 30 mg/kg
reported_metric: Drug concentration in tumor
Answer as a quantity: numeral, then unit.

> print(dat)
                              line.notation              reported.metric  observed.measurement
1  COc1nc(-c2cccc(-c3cccc(NC(=O)c4nc5c(n4C)CCN(C)C5)c3Cl)c2Cl)ccc1CNC(CO)CO  Drug concentration in tumor             697 ng/mL
2  COc1nc(-c2cccc(-c3cccc(NC(=O)c4nc5c(n4C)CCN(C)C5)c3Cl)c2Cl)ccc1CN1CC(O)(CO)C1  Drug concentration in tumor             628 ng/mL

Reported Drug concentration in tumor ( `COc1nc(-c2cccc(-c3cccc(NC(=O)c4nc5c(n4C)CCN(C)C5)c3Cl)c2Cl)ccc1CN1CC2(C1)CN(C(C)=O)C2` ) = 2285 ng/mL
